System: Cryptococcus neoformans
CONDITION NOTES: Concentration 20 uM; ASSAY_TEST Inhibition of Fungal Growth; detection method Resazurin; Absorption (OD600-OD570); plate type 384well; NBS; CORNING #3640
Description: Antifungal activity against Cryptococcus neoformans H99 ATCC 208821 (CO-ADD:FG_002); MIC in YNB media using NBS plates, by Resazurin OD(600-570)
Potency and affinity values are given separately.
Each entry below carries its reported Inhibition.
Write the answer as a number in %, unit excluded.

Sample records with Inhibition:
COMPOUND | OBSERVED VALUE
C#CC(C)OCC1CNC(=S)O1 (stereo not given) | 15.9
COC(=O)C1(C(=O)OC)C2C(=O)C3C(C21)C3(C(=O)OC(C)(C)C)C(=O)OC(C)(C)C (stereo not given) | -1.86
CCOC(=O)c1c(O)cc(C)nc1O | 13.8
NNC(=O)Cc1cc(O)[nH]n1 | -9.5

Query block: Please provide the recorded Inhibition for Sc1nccn1-c1ccccc1Cl , tested on Cryptococcus neoformans.
Result block: -5.04

Query block: Please provide the recorded Inhibition for COc1ccc(Cc2nnc(SC)n2-c2ccc(F)cc2)cc1OC , tested on Cryptococcus neoformans.
Result block: -3.12

---

System: Klebsiella pneumoniae
CONDITION NOTES: Concentration 20 uM; ASSAY_TEST Inhibition of Bacterial Growth; detection method Absorption (OD600); MEDIA CAMHB; plate type 384well; NBS; CORNING #3640; time 18 hr
Description: Antibacterial activity against Klebsiella pneumoniae MDR ATCC 70063 (CO-ADD:GN_003); MIC in CAMBH media using NBS plates, by OD(600)
Measured potencies and affinities stand elsewhere.
Each entry below carries its reported Inhibition.
Write the answer as a number in %, unit excluded.

Sample records with Inhibition:
MOLECULE | UNIT | Inhibition
Cc1ccc(C)c(N2CCN(c3ccncc3N)CC2)c1 | % | 8.69
O=C(O)C(Cc1c[nH]c2ccccc12)N1C(=O)c2ccccc2C1=O (configuration not stated) | % | 9.04
Cn1nc(SCc2ccccc2)c(=O)n(C(c2ccccc2)c2ccccc2)c1=O | % | 5.74
Sc1nc2c[nH]c(S)nc-2n1 | % | 15.98
CN1CCc2ccccc2C1Cc1ccccc1NC(=O)c1sc2ccccc2c1Cl (configuration not stated) | % | 11.11

Query block: Query: Inhibition; subject: c1ccc(-c2nc(-c3ccccn3)nc(-c3ccccn3)n2)nc1
Result block: 10.56

Query block: Query: Inhibition; subject: COC(=O)c1cc(C)nc2c(C)cc3[nH]c4ccccc4c3c12
Result block: 17.6

Query block: Query: Inhibition; subject: CCCCOC(=O)c1cccnc1
Result block: 13.5

Query block: Query: Inhibition; subject: O=C(NC1(N2CCOCC2)CC1)c1ccc(Cl)cc1
Result block: 3.34

Query block: Query: Inhibition; subject: N#C/C(=C\c1cc(O)c(O)c(O)c1)C(N)=O
Result block: 9.86

Query block: Query: Inhibition; subject: CN(C)c1ccc(/C=C/c2ccc3ccccc3n2)cc1
Result block: 10.87

Query block: Query: Inhibition; subject: CN(C)c1ccc(/N=N\c2cccc3ccoc23)cc1
Result block: -3.95

---

Each entry below carries its reported Inhibition.
Tested on: Candida albicans
CONDITION NOTES: 20 µM
Description: Antifungal activity against Candida albicans ATCC 90028 (CO-ADD:FG_001); MIC in YNB media using NBS plates, by OD630
Measured potencies and affinities stand elsewhere.
Write the answer as a number in %, unit excluded.

Sample records with Inhibition:
COMPOUND | UNIT | Inhibition
N#C/N=C/N1CC=C(c2ccc(Cl)cc2)CC1 | % | 8.73
C=CCNc1ncnc2sc(SC)nc12 | % | 10.1
COc1ccc2c(c1)C(=O)C1NC(=O)NC(=O)C1(Br)N2 (stereo unspecified) | % | -1.05
Nc1nc(N)c(/C=N/c2ccc(Br)cc2)c(Nc2ccc(Br)cc2)n1 | % | -1.08
Nc1nc2c[nH]c(N)nc-2n1 | % | 3.2

Note: attention shifts to another entry.
Query block: Query: Inhibition; subject: CC1=C(O)C(=O)C(c2c(C)cc(C)c(Br)c2C)=C(O)C1=O
Result block: 19.7

---

Tested on: Acinetobacter baumannii
ASSAY REMARKS: Antibacterial activity against Acinetobacter baumannii ATCC 19606 (CO-ADD:GN_034); MIC in CAMBH media using NBS plates, by Resazurin F(560/590)
Assay type: functional
CONDITION NOTES: Concentration 20 uM, ASSAY_TEST Inhibition of Bacterial Growth, detection method Resazurin, Fluorescence (ex560/em590), MEDIA CAMHB, plate type 384well, CORNING #3640, time 18 hr
Each entry below carries its reported Inhibition.
Don't forget the unit after the value.

COMPOUND | STUDY SYSTEM | Inhibition
O=[N+]([O-])c1ccccc1/C=C/C=N/N=C/c1ccccc1O | Acinetobacter baumannii | -15.14%
S=C(Sc1ccc(Cl)cc1)Sc1ccc(Cl)cc1 | Acinetobacter baumannii | 10.03%
c1ccc(-n2nnnc2-c2cccc3ccccc23)cc1 | Acinetobacter baumannii | 8.55%
NNC(=O)CNc1cccc(Br)c1 | Acinetobacter baumannii | 1.39%
Cn1c(=O)c2c(nc(N3CCOCC3)n2C)n(C)c1=O | Acinetobacter baumannii | 6.55%

Query block: Query: Inhibition; subject: c1ccc(-n2c3ccccc3c3ccccc32)cc1
Result block: -3.58%

Query block: Query: Inhibition; subject: CSc1ccc(NC(=O)Nc2ccccc2C(N)=O)cc1
Result block: 11.66%

Query block: Query: Inhibition; subject: Clc1cc2c(nn1)Nc1ccccc1S2
Result block: 9.37%

Query block: Query: Inhibition; subject: Cc1cc(C)n(C(=N)NC(=O)c2ccc([N+](=O)[O-])cc2)n1
Result block: 1.39%

---

Each entry below carries its reported Inhibition.
Tested on: Escherichia coli
ASSAY REMARKS: Antibacterial activity against Escherichia coli ATCC 25922 (CO-ADD:GN_001); MIC in CAMBH media using NBS plates, by Resazurin F(560/590)
Type: functional
CONDITION NOTES: Concentration 20 uM, ASSAY_TEST Inhibition of Bacterial Growth, detection method Resazurin, Fluorescence (ex560/em590), MEDIA CAMHB, plate type 384well, CORNING #3640, time 18 hr
Write the answer as a number in %, unit excluded.

Sample records with Inhibition:
COMPOUND | UNIT | Inhibition
OCc1ncccc1O | % | -5.68
NCC(=O)Nc1ccc(Cl)cc1C(=O)c1ccc[nH]1 | % | 6.3
CC(C)(C)N1CCC1CN (centres undefined) | % | 10.97
CCOc1ccc(NC(=O)C2CCCN(C)C2)cc1 (centres undefined) | % | -2.25
N#C/C(=C\c1cc(O)c(O)c(O)c1)C(N)=O | % | 5.21

Query block: Query: Inhibition; subject: CC(C)(NC(=O)c1cc(Cl)c2ccccc2c1O)C(=O)O
Result block: 13.46

Query block: Query: Inhibition; subject: COc1cc2c(cc1OC)C(/C=C/c1ccco1)=NCC2.O=S(=O)(O)O
Result block: 7.22

Query block: Query: Inhibition; subject: Cc1nc(C(N)=O)nc2ccccc12
Result block: 6.82

Query block: Query: Inhibition; subject: CCCCn1cnc2c(S)nc(N)nc21
Result block: -1.37

Query block: Query: Inhibition; subject: c1ccc2c(c1)Nc1cc3ccccc3cc1S2
Result block: 3.79

Query block: Query: Inhibition; subject: Nc1ccc2c(c1)nnn2-c1ccccc1
Result block: 12.06

Query block: Query: Inhibition; subject: CN(C)c1ccc(/C=C(\C#N)C(=O)c2ccccc2)cc1
Result block: 8.74

Query block: Query: Inhibition; subject: CCOC(=O)c1cnn2c(SC)ncnc12
Result block: -2.6

Query block: Query: Inhibition; subject: N#CC1=C(Nc2ccccc2Cl)SC(c2ccncc2)NC1=O (centres undefined)
Result block: -3.11

---

Tested on: Klebsiella pneumoniae
CONDITION NOTES: Concentration 20 uM; ASSAY_TEST Inhibition of Bacterial Growth; detection method Absorption (OD600); MEDIA CAMHB; plate type 384well; NBS; CORNING #3640; time 18 hr
Measured potencies and affinities stand elsewhere.
MEASURED METRIC: Inhibition (%)
Write the answer as a number in %, unit excluded.

Sample records with Inhibition:
MOLECULE | MEASURED METRIC | OBSERVED VALUE
Cc1cc(N(C)C)ccc1/N=N/c1ccc2ncccc2c1 | Inhibition | 5.32
COc1ccccc1N1C(=O)CC(Sc2ccccc2N)C1=O (stereo unspecified) | Inhibition | 1.73
CCOc1cc2c(Cl)ncnc2c(OCC)c1OCC | Inhibition | 0.85
Brc1ccc(-c2csc(Nc3nc(-c4ccc(Br)cc4)cs3)n2)cc1 | Inhibition | 1.43
CCOC(=O)c1nnsc1-c1ccc(-c2snnc2C(=O)OCC)cc1 | Inhibition | 29.27

Note: attention shifts to another entry.
Query block: Query: Inhibition; subject: CC1CC(C)(C)C2=NCCN21 (stereo unspecified)
Result block: 11.7

---

Each entry below carries its reported Inhibition.
Test system: Candida albicans
CONDITION NOTES: 20 µM
Results with a measured potency or affinity are listed apart.
Write the answer as a number in %, unit excluded.

Sample records with Inhibition:
COMPOUND | MEASURED METRIC | OBSERVED VALUE
O=C(Nc1cccc2ccccc12)c1ccccc1 | Inhibition | 0.1
COC(=O)c1ccc(Cn2cnc3c(Cl)ncnc32)cc1 | Inhibition | -1.99
O=C(/C=C/C(=O)N1CCc2ccccc2C1)N1CCc2ccccc2C1 | Inhibition | 7.97
C=CCN=C(NC#N)SC | Inhibition | -0.02
COC(=O)C(=Cc1ccccc1[N+](=O)[O-])C(=O)OC | Inhibition | 9.98
O=C(O)c1cc2ccccc2cc1Nc1ccccc1 | Inhibition | 12.2
Cn1c(=O)c2c(nc(Cc3ccc(N)cc3)n2C)n(C)c1=O | Inhibition | -1.67
COc1ccn(C2CCCCO2)c(=O)n1 (stereo not drawn) | Inhibition | 0.65

Query block: Query: Inhibition; subject: N=C(N)NC(=S)Nc1ccc(Cl)cc1
Result block: 20

Query block: Query: Inhibition; subject: Nc1ncncc1-c1ccc2ccccc2c1
Result block: 5.79

Query block: Query: Inhibition; subject: CCNc1nn2ccccc2c1/C=C(/C#N)C(=O)OCC
Result block: 8.75

Query block: Query: Inhibition; subject: CC1(C)c2ccccc2-c2nc3ccccc3cc2C1O (stereo not drawn)
Result block: 9.47

Query block: Query: Inhibition; subject: CCOC(=O)C(=O)Cc1cccnn1
Result block: 9.85

Query block: Query: Inhibition; subject: CCCC1OC(c2cc3c(cc2Cl)OCO3)OCC1CC (stereo not drawn)
Result block: 5.6

Query block: Query: Inhibition; subject: Cc1cc(N(C)C)ccc1/N=N/c1ccc2ncccc2c1
Result block: 3.26

Query block: Query: Inhibition; subject: O=C(CC1(O)CCCCC1)OC1CCCC1
Result block: 2.66

Query block: Query: Inhibition; subject: O=C(O)c1ccccc1-n1c2ccccc2c2ccccc21
Result block: 4.15

Query block: Query: Inhibition; subject: c1ccc(-c2ccc3c(c2)NCCN3)cc1
Result block: -1.02

Query block: Query: Inhibition; subject: CSc1nc(O)nnc1Sc1ccccc1
Result block: 13.4

Query block: Query: Inhibition; subject: Cc1nc(N)nc(O)c1CCCNc1ccc(CCC2(CCl)OCCO2)cc1
Result block: 1.57

Query block: Query: Inhibition; subject: Cc1ccc(-c2cssc2=S)cc1
Result block: 13.1

Query block: Query: Inhibition; subject: CCCN(CCC)CC(=O)N1CC(=O)Nc2ccccc21
Result block: 3.75

Query block: Query: Inhibition; subject: CCn1c2ccccc2c2cc(NC(=O)Nc3ccc([N+](=O)[O-])cc3C)ccc21
Result block: 18.4

Query block: Query: Inhibition; subject: O=C1NCN(CCO)CN1
Result block: 0.72
